Assign IC50 to each entry below.
testTarget: DP IV (Homo sapiens, UniProt P27487)
procedureDetails: DP IV inhibition IC50, parallel-synthesis compounds tested directly following synthesis (without purification)
Assay type: biochemical
Design: IC50 DP4; other: tested directly following parallel synthesis, without purification; compounds of formula (Ib) from parallel synthesis, tested directly following synthesis
reportedConditions: DP IV inhibition; compounds of formula (Ib) from parallel synthesis, tested directly following synthesis (without purification); read-out: IC50
Lab book: enter the figure in µM, no units written.

stdin: Sample NCc1c(-c2ccc(Cl)cc2Cl)ncn1Cc1cccc(C(F)(F)F)c1 [89b] — what was its IC50?
stdout: 1.9

stdin: Sample COc1ccc(CCn2cnc(-c3ccc(Cl)cc3Cl)c2CN)cc1 [45b] — what was its IC50?
stdout: 27.1

stdin: Sample COc1cccc(Cn2cnc(-c3ccc(Cl)cc3Cl)c2C(C)N)c1 (stereo not drawn) [76b] — what was its IC50?
stdout: 10

stdin: Sample NCCCc1c(-c2ccc(Cl)cc2Cl)ncn1CCc1ccccc1Cl [90b] — what was its IC50?
stdout: 14.5

stdin: Sample Cc1ccc(Cn2cnc(-c3ccc(Cl)cc3Cl)c2CN)cc1 [66b] — what was its IC50?
stdout: 11.8

stdin: Sample NCc1c(-c2ccc(Cl)cc2Cl)ncn1CCCn1ccnc1 [Example 104b] — what was its IC50?
stdout: 5.5

stdin: Sample CCNCCn1cnc(-c2ccc(Cl)cc2Cl)c1CN [69b] — what was its IC50?
stdout: 19

stdin: Sample CCCCCCn1cnc(-c2ccc(Cl)cc2Cl)c1CN [84b] — what was its IC50?
stdout: 1

stdin: Sample CC(N)c1c(-c2ccc(Cl)cc2Cl)ncn1CCc1ccccc1 (stereo not drawn) — what was its IC50?
stdout: 32.5

stdin: Sample NCc1c(-c2ccc(Cl)cc2Cl)ncn1CC1CCCO1 (stereo not drawn) [Example 17b] — what was its IC50?
stdout: 1.9

stdin: Sample CC(N)c1c(-c2ccc(Cl)cc2Cl)ncn1CCCN1CCCC1=O (stereo not drawn) [22b] — what was its IC50?
stdout: 30.7

stdin: Sample COc1cccc(Cn2cnc(-c3ccc(Cl)cc3Cl)c2CN)c1 [Example 59b] — what was its IC50?
stdout: 3.7

stdin: Sample NCc1c(-c2ccc(Cl)cc2Cl)ncn1CCN1CCOCC1 [10b] — what was its IC50?
stdout: 12.7

stdin: Sample CC(C)CCCCCCn1cnc(-c2ccc(Cl)cc2Cl)c1CN [99b] — what was its IC50?
stdout: 4.6

stdin: Sample NCc1c(-c2ccc(Cl)cc2Cl)ncn1Cc1ccccn1 [Example 39b] — what was its IC50?
stdout: 4.6

stdin: Sample NCc1c(-c2ccc(Cl)cc2Cl)ncn1Cc1cc(Br)ccc1F [124b] — what was its IC50?
stdout: 34.3

stdin: Sample "NCc1c(-c2ccc(Cl)cc2Cl)ncn1CCNC1CCCCC1" — what was its IC50?
stdout: 10

stdin: Sample NCc1c(-c2ccc(Cl)cc2Cl)ncn1Cc1cccc(Cl)c1Cl [46b] — what was its IC50?
stdout: 2.8

stdin: Sample CC(C)CCn1cnc(-c2ccc(Cl)cc2Cl)c1C(C)N (stereo not drawn) [44b] — what was its IC50?
stdout: 40.6

stdin: Sample C[C@H](N)c1c(-c2ccc(Cl)cc2Cl)ncn1CCC(c1ccccc1)c1ccccc1 [88b] — what was its IC50?
stdout: 28

stdin: Sample NCc1c(-c2ccc(Cl)cc2Cl)ncn1Cc1ccc(C(F)(F)F)cc1 [98b] — what was its IC50?
stdout: 27.1

====

Assign LD50 Viability SY5Y to each entry below.
Test system: neuroblastoma cell line SY5Y
procedureDetails: LD50 determination on SY5Y (LDH)
Format: cell-based
reportedConditions: 8 serial dilutions, highest concentration 1 mM

stdin: Sample NCc1c(-c2ccc(Cl)cc2Cl)ncn1Cc1ccccc1Cl [Example 81b] — what was its LD50 Viability SY5Y?
stdout: 0.07 mM

stdin: Sample NCc1c(-c2ccc(Cl)cc2Cl)ncn1Cc1ccsc1 [Example 130b] — what was its LD50 Viability SY5Y?
stdout: 0.17 mM

stdin: Sample NCc1c(-c2ccc(Cl)cc2Cl)ncn1Cc1ccccc1 [Example 24b] — what was its LD50 Viability SY5Y?
stdout: 0.11 mM

stdin: Sample CCOc1ccccc1Cn1cnc(-c2ccc(Cl)cc2Cl)c1CN [Example 128b] — what was its LD50 Viability SY5Y?
stdout: 0.07 mM

stdin: Sample NCc1c(-c2ccc(Cl)cc2Cl)ncn1Cc1ccccc1OC(F)(F)F [Example 129b] — what was its LD50 Viability SY5Y?
stdout: 0.13 mM

stdin: Sample NCc1c(-c2ccc(Cl)cc2Cl)ncn1Cc1cccnc1 [Example 121b] — what was its LD50 Viability SY5Y?
stdout: 0.46 mM

stdin: Sample NCc1c(-c2ccc(Cl)cc2Cl)ncn1Cc1ccccn1 [Example 39b] — what was its LD50 Viability SY5Y?
stdout: 0.29 mM

stdin: Sample COc1ccccc1Cn1cnc(-c2ccc(Cl)cc2Cl)c1CN [Example 120b] — what was its LD50 Viability SY5Y?
stdout: 0.10 mM

====

testTarget: DPII (Homo sapiens, UniProt Q9UHL4)
procedureDetails: DPII assay
Type: biochemical
reportedConditions: ratio IC50 DPII / Ki DP IV
Assign Selectivity DPII(IC50)/DPIV(Ki) to each entry below.

stdin: Sample NCc1c(-c2ccc(Cl)cc2Cl)ncn1C(CO)c1ccccc1 (stereo not shown) [Example 126b] — what was its Selectivity DPII(IC50)/DPIV(Ki)?
stdout: 1,887

stdin: Sample CCOc1ccccc1Cn1cnc(-c2ccc(Cl)cc2Cl)c1CN [Example 128b] — what was its Selectivity DPII(IC50)/DPIV(Ki)?
stdout: 540

stdin: Sample NCc1c(-c2ccc(Cl)cc2Cl)ncn1Cc1ccsc1 [Example 130b] — what was its Selectivity DPII(IC50)/DPIV(Ki)?
stdout: 186

stdin: Sample NCc1c(-c2ccc(Cl)cc2Cl)ncn1Cc1ccccn1 [Example 39b] — what was its Selectivity DPII(IC50)/DPIV(Ki)?
stdout: >176,056

stdin: Sample NCc1c(-c2ccc(Cl)cc2Cl)ncn1CCCCCO [Example 38b] — what was its Selectivity DPII(IC50)/DPIV(Ki)?
stdout: 1,474

stdin: Sample NCc1c(-c2ccc(Cl)cc2Cl)ncn1Cc1ccccc1 [Example 24b] — what was its Selectivity DPII(IC50)/DPIV(Ki)?
stdout: 6,329

stdin: Sample COc1cccc(Cn2cnc(-c3ccc(Cl)cc3Cl)c2CN)c1 [Example 59b] — what was its Selectivity DPII(IC50)/DPIV(Ki)?
stdout: 2,542

stdin: Sample NCc1c(-c2ccc(Cl)cc2Cl)ncn1CCc1ccccc1Cl [Example 21b] — what was its Selectivity DPII(IC50)/DPIV(Ki)?
stdout: 157

stdin: Sample NCc1c(-c2ccc(Cl)cc2Cl)ncn1Cc1ccccc1F [Example 112b] — what was its Selectivity DPII(IC50)/DPIV(Ki)?
stdout: 3,514

stdin: Sample NCc1c(-c2ccc(Cl)cc2Cl)ncn1Cc1ccc2c(c1)OCO2 [Example 125b] — what was its Selectivity DPII(IC50)/DPIV(Ki)?
stdout: 471

stdin: Sample NCc1c(-c2ccc(Cl)cc2Cl)ncn1Cc1ccccc1Cl [Example 81b] — what was its Selectivity DPII(IC50)/DPIV(Ki)?
stdout: 383

stdin: Sample CC(C)(C)Cn1cnc(-c2ccc(Cl)cc2Cl)c1CN [Example 11b] — what was its Selectivity DPII(IC50)/DPIV(Ki)?
stdout: 1,457

stdin: Sample NCc1c(-c2ccc(Cl)cc2Cl)ncn1Cc1cccnc1 [Example 121b] — what was its Selectivity DPII(IC50)/DPIV(Ki)?
stdout: 41,216

stdin: Sample NCc1c(-c2ccc(Cl)cc2Cl)ncn1CCCn1ccnc1 [Example 104b] — what was its Selectivity DPII(IC50)/DPIV(Ki)?
stdout: 9,172

stdin: Sample NCc1c(-c2ccc(Cl)cc2Cl)ncn1Cc1ccccc1OC(F)(F)F [Example 129b] — what was its Selectivity DPII(IC50)/DPIV(Ki)?
stdout: 237

stdin: Sample COc1ccccc1Cn1cnc(-c2ccc(Cl)cc2Cl)c1CN [Example 120b] — what was its Selectivity DPII(IC50)/DPIV(Ki)?
stdout: 1,177

====

Assign Papp B→A to each entry below.
procedureDetails: Caco-2 transport assay
Assay type: in vitro ADME, human
reportedConditions: human, Caco-2; basal to apical, pH 7.5
Lab book: enter the figure in ×10⁻⁶ cm/s, no units written.

stdin: Sample NCc1c(-c2ccc(Cl)cc2Cl)ncn1Cc1ccccc1F [Example 112b] — what was its Papp B→A?
stdout: 42.1

stdin: Sample NCc1c(-c2ccc(Cl)cc2Cl)ncn1Cc1ccccc1Cl [Example 81b] — what was its Papp B→A?
stdout: 16

stdin: Sample COc1ccccc1Cn1cnc(-c2ccc(Cl)cc2Cl)c1CN [Example 120b] — what was its Papp B→A?
stdout: 52.8

stdin: Sample NCc1c(-c2ccc(Cl)cc2Cl)ncn1C(CO)c1ccccc1 (stereo not shown) [Example 126b] — what was its Papp B→A?
stdout: 16.5

stdin: Sample NCc1c(-c2ccc(Cl)cc2Cl)ncn1Cc1ccccc1 [Example 24b] — what was its Papp B→A?
stdout: 41.7

stdin: Sample CCOc1ccccc1Cn1cnc(-c2ccc(Cl)cc2Cl)c1CN [Example 128b] — what was its Papp B→A?
stdout: 15

stdin: Sample COc1cccc(Cn2cnc(-c3ccc(Cl)cc3Cl)c2CN)c1 [Example 59b] — what was its Papp B→A?
stdout: 38.3

stdin: Sample NCc1c(-c2ccc(Cl)cc2Cl)ncn1Cc1ccccn1 [Example 39b] — what was its Papp B→A?
stdout: 42.5

stdin: Sample NCc1c(-c2ccc(Cl)cc2Cl)ncn1Cc1ccsc1 [Example 130b] — what was its Papp B→A?
stdout: 31.2

stdin: Sample NCc1c(-c2ccc(Cl)cc2Cl)ncn1Cc1cccnc1 [Example 121b] — what was its Papp B→A?
stdout: 40.4

Source: patent US7728146B2
